Sourced from ChEMBL document CHEMBL1146302

assay: Half life in Sprague-Dawley rat plasma at 2 mg/kg, po by cassette-dosing assay; format: ADME, organism-based; set-up: dose 2 mg/kg, route oral
VALUE_TYPE: half-life (h)

In [3]: df
Out[3]:
                                   compound  value_type  endpoint_value
0  O=C(O)[C@H]1C2CCC(C2)[C@@H]1NC(=O)[C@@H]1CCCN1S(=O)(=O)c1cc(Cl)cc(Cl)c1 (stereo partly specified)   half-life             1.7

###

assay: Bioavailability in Sprague-Dawley rat at 2 mg/kg, po by cassette-dosing assay; format: ADME, organism-based; conditions: in vivo
VALUE_TYPE: bioavailability (%)

                                   molecule  result_unit  endpoint_value
0  O=C(O)[C@H]1C2CCC(C2)[C@@H]1NC(=O)[C@@H]1CCCN1S(=O)(=O)c1cc(Cl)cc(Cl)c1 (stereo partly specified)            %              49

###

experiment: Clearance in Sprague-Dawley rat plasma at 1 mg/kg, iv by cassette-dosing assay; assay type: ADME, organism-based; parameters: dose 1 mg/kg, route intravenous
VALUE_TYPE: clearance (mL/min/kg)

>>> print(df.to_string())
                                   molecule  endpoint_value
0  O=C(O)[C@H]1C2CCC(C2)[C@@H]1NC(=O)[C@@H]1CCCN1S(=O)(=O)c1cc(Cl)cc(Cl)c1 (stereo partly specified)             3.3

###

biological target: Integrin alpha-4/beta-7 (Homo sapiens, UniProt P13612+P26010); experiment: Binding affinity to human integrin alpha-4-beta-7 in Jurkat cells
Sequence (P13612 whole entry): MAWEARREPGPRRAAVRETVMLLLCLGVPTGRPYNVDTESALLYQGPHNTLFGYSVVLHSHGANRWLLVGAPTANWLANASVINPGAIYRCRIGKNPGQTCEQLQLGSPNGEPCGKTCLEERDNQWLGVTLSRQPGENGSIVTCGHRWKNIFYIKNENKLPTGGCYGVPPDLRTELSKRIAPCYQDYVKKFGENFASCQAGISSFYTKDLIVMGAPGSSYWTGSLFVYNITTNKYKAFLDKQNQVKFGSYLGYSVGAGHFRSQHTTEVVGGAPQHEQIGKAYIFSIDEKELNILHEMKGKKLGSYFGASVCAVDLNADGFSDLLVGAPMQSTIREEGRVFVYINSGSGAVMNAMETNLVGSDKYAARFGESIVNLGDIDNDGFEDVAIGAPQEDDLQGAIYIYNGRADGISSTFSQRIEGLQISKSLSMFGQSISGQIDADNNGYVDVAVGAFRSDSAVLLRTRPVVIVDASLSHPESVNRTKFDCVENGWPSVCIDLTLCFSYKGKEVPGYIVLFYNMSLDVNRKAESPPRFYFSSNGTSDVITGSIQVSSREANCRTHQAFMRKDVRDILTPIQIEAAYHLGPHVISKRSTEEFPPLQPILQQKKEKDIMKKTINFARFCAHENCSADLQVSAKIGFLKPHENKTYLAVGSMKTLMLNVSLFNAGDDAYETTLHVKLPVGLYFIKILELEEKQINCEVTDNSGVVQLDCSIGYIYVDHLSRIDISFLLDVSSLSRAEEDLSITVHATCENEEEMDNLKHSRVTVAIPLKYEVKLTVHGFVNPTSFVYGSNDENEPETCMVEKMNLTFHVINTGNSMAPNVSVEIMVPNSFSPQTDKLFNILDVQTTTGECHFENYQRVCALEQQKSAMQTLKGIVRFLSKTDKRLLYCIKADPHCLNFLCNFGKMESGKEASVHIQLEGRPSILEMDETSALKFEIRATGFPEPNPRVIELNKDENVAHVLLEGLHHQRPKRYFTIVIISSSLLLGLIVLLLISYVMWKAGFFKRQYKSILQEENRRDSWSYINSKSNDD
Sequence (P26010 whole entry): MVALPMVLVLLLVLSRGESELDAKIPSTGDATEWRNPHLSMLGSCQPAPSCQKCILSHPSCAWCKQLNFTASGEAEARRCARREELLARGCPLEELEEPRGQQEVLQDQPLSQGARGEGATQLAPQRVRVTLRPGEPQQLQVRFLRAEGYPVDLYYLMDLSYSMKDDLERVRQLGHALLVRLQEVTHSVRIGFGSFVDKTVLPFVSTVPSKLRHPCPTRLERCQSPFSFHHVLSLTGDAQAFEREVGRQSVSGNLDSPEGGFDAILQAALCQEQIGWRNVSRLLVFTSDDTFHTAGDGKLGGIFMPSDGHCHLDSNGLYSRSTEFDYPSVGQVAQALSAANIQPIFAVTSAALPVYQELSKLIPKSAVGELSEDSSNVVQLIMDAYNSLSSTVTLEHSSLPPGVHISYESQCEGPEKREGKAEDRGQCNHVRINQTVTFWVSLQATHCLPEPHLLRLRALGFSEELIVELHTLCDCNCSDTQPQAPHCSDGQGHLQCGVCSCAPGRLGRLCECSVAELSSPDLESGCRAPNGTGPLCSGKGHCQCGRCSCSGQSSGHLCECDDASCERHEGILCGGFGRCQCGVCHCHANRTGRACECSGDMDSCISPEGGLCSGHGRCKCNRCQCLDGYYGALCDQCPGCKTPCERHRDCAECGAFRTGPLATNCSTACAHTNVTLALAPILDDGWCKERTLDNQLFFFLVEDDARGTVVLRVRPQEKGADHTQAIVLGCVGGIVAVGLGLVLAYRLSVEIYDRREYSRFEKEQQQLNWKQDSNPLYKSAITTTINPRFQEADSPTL
pIC50: −log10 of the molar value.
VALUE_TYPE: pIC50

>>> print(df.to_string())
                                   molecule  endpoint_value
0  O=C(O)[C@H]1C2CCC(C2)[C@@H]1NC(=O)[C@@H]1CCCN1S(=O)(=O)c1cc(Cl)cc(Cl)c1 (stereo partly specified)            4.89

###

target: Integrin alpha-4/beta-1 (Homo sapiens, UniProt P05556+P13612); assay: Displacement of [125I]VCAM-Ig from human VLA4 alpha-4-beta-1 in Jurkat cells at 100 uM; assay type: cell-based
In this section, each of the compounds is paired with its reported Activity.
VALUE_TYPE: Activity

                            chemical_smiles                               system_name  value_type  endpoint_value
0  O=C(O)Cc1cccc(NC(=O)[C@@H]2CCCN2S(=O)(=O)c2cc(Cl)cc(Cl)c2)c1  Integrin alpha-4/beta-1 (Homo sapiens, UniProt P05556+P13612)    Activity             43%
1  O=C(O)c1cccc(NC(=O)[C@@H]2CCCN2S(=O)(=O)c2cc(Cl)cc(Cl)c2)c1  Integrin alpha-4/beta-1 (Homo sapiens, UniProt P05556+P13612)    Activity              2%
2  O=C(O)Cc1ccccc1NC(=O)[C@@H]1CCCN1S(=O)(=O)c1cc(Cl)cc(Cl)c1  Integrin alpha-4/beta-1 (Homo sapiens, UniProt P05556+P13612)    Activity             11%
3  O=C(O)c1ccccc1NC(=O)[C@@H]1CCCN1S(=O)(=O)c1cc(Cl)cc(Cl)c1  Integrin alpha-4/beta-1 (Homo sapiens, UniProt P05556+P13612)    Activity              0%
